Test system: Molt-4
Test: Anti-proliferative concentration IC50 (Table 2)
Assay type: cell-based
Details: Homo sapiens; Molt-4, 16 h, tested at 0-100 μM; read-out: Anti-proferative concentration - IC50 (mean ± SE)
Would you kindly list pIC50 for each of these molecules?
Numbers only, as −log10 of the molar value.

Would you please look over these solved cases?
[[record]]
molecule = "C=CCSSc1ncnc2nc[nH]c12"
experimental_system = "Molt-4"
reported_property = "pIC50"
assay_result = 5.05

[[record]]
molecule = "Sc1ncnc2nc[nH]c12 [6-MP, 6-Mercaptopurine, reference compound]"
experimental_system = "Molt-4"
reported_property = "pIC50"
assay_result = 4.30


Please examine the following record next.
Sample OC[C@H]1O[C@@H](n2cnc3c(S)ncnc32)[C@H](O)[C@@H]1O [6-MPR, 6-mercaptopurine riboside, reference compound] ; pIC50 observed: 4.61

* * *

Test system: Jurkat
Assay: Anti-proliferative concentration IC50 (Table 2)
Format: cell-based, human
Settings: 16 h, tested at 0-100 μM, read-out: Anti-proferative concentration - IC50 (mean ± SE)
reported-property: pIC50
Answers are plain numbers, as −log10 of the molar value.

Sample C=CCSSc1ncnc2c1ncn2[C@@H]1O[C@H](CO)[C@@H](O)[C@H]1O [SA-6MPR, S-allylthio-6-mercaptopurine 9-riboside] ; pIC50 observed: 4.16

* * *

System: Hela
Assay: Anti-proliferative concentration IC50 (Table 2)
Format: cell-based, human
Settings: 16 h, tested at 0-200 μM, read-out: Anti-proferative concentration - IC50 (mean ± SE)
reported-property: IC50

Sample C=CCSSc1ncnc2c1ncn2[C@@H]1O[C@H](CO)[C@@H](O)[C@H]1O [SA-6MPR, S-allylthio-6-mercaptopurine 9-riboside] ; IC50 observed: > 200 µM
